details: in ethyl acetate, 298.15 K
measure: solubility (mole fraction)

COC(=O)[C@@H](N)CS.Cl ... 0.00015

====

settings: in dichloromethane, 283.15 K
measure: solubility (mole fraction)

COC(=O)[C@@H](N)CS.Cl ... 5e-05

====

conditions: in isobutanol, 313.15 K
measure: solubility (mole fraction)

COC(=O)[C@@H](N)CS.Cl ... 0.0086

====

conditions: in ethanol, 323.15 K
measure: solubility (mole fraction)

COC(=O)[C@@H](N)CS.Cl ... 0.0722

====

conditions: in n-butanol, 333.15 K
measure: solubility (mole fraction)

COC(=O)[C@@H](N)CS.Cl ... 0.0306

====

conditions: in sec-butanol, 333.15 K
measure: solubility (mole fraction)

COC(=O)[C@@H](N)CS.Cl ... 0.0112

====

settings: in acetone, 308.15 K
measure: solubility (mole fraction)

COC(=O)[C@@H](N)CS.Cl ... 0.00101

====

conditions: in methanol, 333.15 K
measure: solubility (mole fraction)

COC(=O)[C@@H](N)CS.Cl ... 0.257

====

details: in 1,4-dioxane, 308.15 K
measure: solubility (mole fraction)

COC(=O)[C@@H](N)CS.Cl ... 0.00184

====

conditions: in 2-butanone, 303.15 K
measure: solubility (mole fraction)

COC(=O)[C@@H](N)CS.Cl ... 0.00164

====

conditions: in n-pentanol, 288.15 K
measure: solubility (mole fraction)

COC(=O)[C@@H](N)CS.Cl ... 0.00462

====

conditions: in acetonitrile, 298.15 K
measure: solubility (mole fraction)

COC(=O)[C@@H](N)CS.Cl ... 0.0004

====

settings: in ethanol, 328.15 K
measure: solubility (mole fraction)

COC(=O)[C@@H](N)CS.Cl ... 0.0864

====

conditions: in n-butanol, 293.15 K
measure: solubility (mole fraction)

COC(=O)[C@@H](N)CS.Cl ... 0.0067

====

settings: in ethanol, 298.15 K
measure: solubility (mole fraction)

COC(=O)[C@@H](N)CS.Cl ... 0.0337

====

conditions: in acetonitrile, 333.15 K
measure: solubility (mole fraction)

COC(=O)[C@@H](N)CS.Cl ... 0.00123

====

details: in ethyl acetate, 313.15 K
measure: solubility (mole fraction)

COC(=O)[C@@H](N)CS.Cl ... 0.00027

====

details: in isobutanol, 303.15 K
measure: solubility (mole fraction)

COC(=O)[C@@H](N)CS.Cl ... 0.00634

====

settings: in n-propanol, 303.15 K
measure: solubility (mole fraction)

COC(=O)[C@@H](N)CS.Cl ... 0.0145

====

settings: in isobutanol, 308.15 K
measure: solubility (mole fraction)

COC(=O)[C@@H](N)CS.Cl ... 0.00718

====

conditions: in isopropanol, 323.15 K
measure: solubility (mole fraction)

COC(=O)[C@@H](N)CS.Cl ... 0.0127

====

settings: in acetone, 288.15 K
measure: solubility (mole fraction)

COC(=O)[C@@H](N)CS.Cl ... 0.00073

====

settings: in isopropanol, 298.15 K
measure: solubility (mole fraction)

COC(=O)[C@@H](N)CS.Cl ... 0.00512

====

details: in acetonitrile, 308.15 K
measure: solubility (mole fraction)

COC(=O)[C@@H](N)CS.Cl ... 0.0005
